Test system: SK-UT-1
Assay: OncoPanel cell proliferation assay, SK-UT-1
Details: Homo sapiens, SK-UT-1, read-out: Cell Count EC50
pEC50: −log10 of the molar value.
Entries annotated with measured pEC50
RECORDED ENDPOINT: pEC50

compound="CO[C@H]1C[C@@H]2CC[C@@H](C)[C@@](O)(O2)C(=O)C(=O)N2CCCC[C@H]2C(=O)O[C@H]([C@H](C)C[C@@H]2CC[C@@H](O)[C@H](OC)C2)CC(=O)[C@H](C)/C=C(\\C)[C@@H](O)[C@@H](OC)C(=O)[C@H](C)C[C@H](C)/C=C/C=C/C=C/1C [Rapamycin, reference compound]" observed_measurement=9.70
compound="CN[C@@H]1C[C@H]2O[C@@](C)([C@@H]1OC)n1c3ccccc3c3c4c(c5c6ccccc6n2c5c31)C(=O)NC4 [Staurosporine, reference compound]" observed_measurement=7.66
compound=CO[C@H]1C[C@@H]2CC[C@@H](C)[C@@](O)(O2)C(=O)C(=O)N2CCCC[C@H]2C(=O)O[C@H]([C@H](C)C[C@H]2C[C@H]3C[C@@H]2C[C@@H]3O)CC(=O)[C@H](C)/C=C(\C)[C@@H](O)[C@@H](OC)C(=O)[C@H](C)C[C@H](C)/C=C/C=C/C=C/1C observed_measurement=8.82

The reported measurements were obtained from patent US20200131196A1.
